// provenance: patent US20230265098A1

TARGET_DESC: Ba/F3 ERBB2 A775_G776insYVMA (Homo sapiens, UniProt P04626, DUP772-775, cells depend on it)
Construct: Ba/F3 cell lines were engineered to express human ERBB2 or EGFR kinases, rendering the cells IL-3 independent
Sequence (P04626 with tags, fused parts or gaps DUP772-775): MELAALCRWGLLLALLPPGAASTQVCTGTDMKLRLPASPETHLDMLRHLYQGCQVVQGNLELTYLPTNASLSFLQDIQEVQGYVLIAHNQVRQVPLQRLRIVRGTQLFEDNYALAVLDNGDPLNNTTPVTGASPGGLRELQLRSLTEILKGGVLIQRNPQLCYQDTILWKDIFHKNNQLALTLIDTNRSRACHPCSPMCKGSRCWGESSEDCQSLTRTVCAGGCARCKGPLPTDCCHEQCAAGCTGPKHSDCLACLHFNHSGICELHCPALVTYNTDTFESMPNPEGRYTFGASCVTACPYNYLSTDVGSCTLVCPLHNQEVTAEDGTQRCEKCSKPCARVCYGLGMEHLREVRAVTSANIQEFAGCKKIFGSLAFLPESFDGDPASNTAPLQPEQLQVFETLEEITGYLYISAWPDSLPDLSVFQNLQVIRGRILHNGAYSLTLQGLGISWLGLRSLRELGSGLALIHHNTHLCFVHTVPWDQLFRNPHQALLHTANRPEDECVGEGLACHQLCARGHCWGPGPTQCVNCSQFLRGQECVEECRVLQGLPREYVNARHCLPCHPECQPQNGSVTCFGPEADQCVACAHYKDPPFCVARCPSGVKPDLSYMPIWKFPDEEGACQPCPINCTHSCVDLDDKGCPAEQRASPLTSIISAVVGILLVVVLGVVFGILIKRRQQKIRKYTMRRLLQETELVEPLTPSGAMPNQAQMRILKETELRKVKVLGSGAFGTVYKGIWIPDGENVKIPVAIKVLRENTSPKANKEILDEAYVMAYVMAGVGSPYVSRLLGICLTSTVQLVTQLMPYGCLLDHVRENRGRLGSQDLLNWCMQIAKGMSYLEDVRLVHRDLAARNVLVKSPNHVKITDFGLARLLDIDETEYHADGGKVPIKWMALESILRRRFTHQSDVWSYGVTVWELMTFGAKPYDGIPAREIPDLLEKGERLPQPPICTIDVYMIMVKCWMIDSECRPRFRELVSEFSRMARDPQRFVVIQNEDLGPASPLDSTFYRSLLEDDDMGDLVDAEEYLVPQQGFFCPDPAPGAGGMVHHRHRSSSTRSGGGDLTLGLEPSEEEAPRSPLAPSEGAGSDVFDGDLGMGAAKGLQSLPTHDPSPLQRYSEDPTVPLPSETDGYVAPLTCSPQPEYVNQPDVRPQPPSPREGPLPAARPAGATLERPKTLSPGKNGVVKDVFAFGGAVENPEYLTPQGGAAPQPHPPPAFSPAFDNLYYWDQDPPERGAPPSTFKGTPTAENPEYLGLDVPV
EXPERIMENTAL_PROTOCOL: Cell viability assay (CellTiter Glo)
Type: cell-based, mouse
CONDITION_SUMMARY: 72 hours; 3000 cells per well, 96-well plates (Tables B3-B4); read-out: Cell viability IC50, nM, Ba/F3 ERBB2 A775_G776insYVMA
Give GI50 for every item shown.
The reply should contain only the number, in nM.

The reported GI50 of the compound CC#CC(=O)Nc1ccc2ncnc(Nc3ccc(Oc4ccc(C)nc4)cc3)c2c1 was 20

The compound listed as CC#CC(=O)Nc1ccc2ncnc(Nc3ccc(Oc4ccc(C)nc4)c(C)c3)c2c1 has a reported GI50 of 8.3

// recorded GI50 for Cc1cc(Nc2ncnc3ccc(NC4=NC(C)(C)CO4)cc23)ccc1Oc1ccn2ncnc2c1 [Tucatinib, tucatinib, reference compound] : 356

In plain terms, CC#CC(=O)Nc1ccc2ncnc(Nc3ccc(Oc4ccn(C)c(=O)c4)c(C)c3)c2c1 has a documented GI50 of 8.1

* * *

TARGET_DESC: Ba/F3 ERBB2-G776VC (Homo sapiens, UniProt P04626, DELINS776-776VC, cells depend on it)
Construct: Ba/F3 cell lines were engineered to express human ERBB2 or EGFR kinases, rendering the cells IL-3 independent
Sequence (P04626 with tags, fused parts or gaps DELINS776-776VC): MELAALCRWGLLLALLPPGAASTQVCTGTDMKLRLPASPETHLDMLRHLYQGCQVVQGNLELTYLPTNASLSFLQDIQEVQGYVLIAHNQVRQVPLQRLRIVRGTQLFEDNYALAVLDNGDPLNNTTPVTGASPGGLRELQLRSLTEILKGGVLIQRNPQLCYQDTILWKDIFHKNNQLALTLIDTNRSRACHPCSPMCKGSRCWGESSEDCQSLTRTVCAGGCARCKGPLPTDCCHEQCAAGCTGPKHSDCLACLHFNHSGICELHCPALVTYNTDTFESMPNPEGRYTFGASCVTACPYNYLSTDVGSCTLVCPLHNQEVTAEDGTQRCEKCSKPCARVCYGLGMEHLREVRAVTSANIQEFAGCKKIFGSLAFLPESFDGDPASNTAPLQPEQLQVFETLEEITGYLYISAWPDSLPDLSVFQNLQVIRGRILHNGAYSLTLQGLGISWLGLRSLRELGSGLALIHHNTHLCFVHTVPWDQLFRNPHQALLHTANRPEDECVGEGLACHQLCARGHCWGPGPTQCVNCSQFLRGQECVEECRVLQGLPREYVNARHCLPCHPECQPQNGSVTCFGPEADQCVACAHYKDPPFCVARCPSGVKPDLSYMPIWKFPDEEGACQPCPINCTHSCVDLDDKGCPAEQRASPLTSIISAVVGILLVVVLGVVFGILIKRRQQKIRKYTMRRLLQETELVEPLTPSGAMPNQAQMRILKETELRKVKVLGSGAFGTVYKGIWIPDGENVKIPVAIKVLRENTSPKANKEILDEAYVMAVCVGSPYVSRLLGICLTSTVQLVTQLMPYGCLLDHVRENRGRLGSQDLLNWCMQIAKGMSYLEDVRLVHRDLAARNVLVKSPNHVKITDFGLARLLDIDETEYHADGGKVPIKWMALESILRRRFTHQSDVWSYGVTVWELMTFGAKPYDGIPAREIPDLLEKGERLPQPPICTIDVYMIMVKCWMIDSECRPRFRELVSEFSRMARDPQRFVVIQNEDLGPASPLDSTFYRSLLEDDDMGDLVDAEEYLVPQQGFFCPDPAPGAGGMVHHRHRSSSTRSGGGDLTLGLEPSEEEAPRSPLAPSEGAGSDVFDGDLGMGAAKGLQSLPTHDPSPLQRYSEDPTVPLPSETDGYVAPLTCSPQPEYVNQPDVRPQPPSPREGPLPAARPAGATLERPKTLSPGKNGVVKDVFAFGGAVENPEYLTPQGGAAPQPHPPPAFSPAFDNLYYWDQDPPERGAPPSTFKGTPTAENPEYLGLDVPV
EXPERIMENTAL_PROTOCOL: Cell viability assay (CellTiter Glo)
Format: cell-based, mouse
CONDITION_SUMMARY: 72 hours; 3000 cells per well, 96-well plates; read-out: Cell viability IC50, nM, Ba/F3 ERBB2-G776VC
QUANTITY_KIND: log10(GI50) (log10 of the value in nM)
Use the decimal logarithm of GI50 (nM).

Query CC#CC(=O)Nc1ccc2ncnc(Nc3ccc(Oc4ccn5ncnc5c4)c(C)c3)c2c1 yields log10(GI50) of 0.41

Reported log10(GI50) of CC#CC(=O)Nc1ccc2ncnc(Nc3ccc(Cc4ccn5ncnc5c4)cc3)c2c1 : 1.11

// sample CC#CC(=O)Nc1ccc2ncnc(Nc3ccc(Oc4cnc(C)cn4)cc3)c2c1 , its log10(GI50) was 1.91

# compound CC#CC(=O)Nc1ccc2ncnc(Nc3ccc(Oc4ccn(C)c(=O)c4)c(C)c3)c2c1 ; its log10(GI50) = 1.48

Lab note: measured log10(GI50) of CC#CC(=O)N(C)c1ccc2ncnc(Nc3ccc(Oc4ccn5ncnc5c4)cc3)c2c1 was 2.07

Summary for this compound, Cc1cc(Nc2ncnc3ccc(NC4=NC(C)(C)CO4)cc23)ccc1Oc1ccn2ncnc2c1 [Tucatinib, tucatinib, reference compound] : log10(GI50) is 2.29

Entry under test: CC#CC(=O)Nc1ccc2ncnc(Nc3ccc(Oc4ccc(C)nc4)c(C)c3)c2c1 . Its log10(GI50) was 0.58

Measured log10(GI50), CC#CC(=O)Nc1ccc2ncnc(Nc3ccc(Oc4ccc(C)nc4)cc3)c2c1 : 1.32

The reported value for CC#CC(=O)Nc1cc2c(Nc3ccc(Oc4ccn5ncnc5c4)c(C)c3)ncnc2cc1OCCN(C)C in terms of log10(GI50) is 1.13

* * *

TARGET_DESC: Ba/F3 ERBB2 A775_G776insYVMA (Homo sapiens, UniProt P04626, DUP772-775, cells depend on it)
Construct: Ba/F3 cell lines were engineered to express human ERBB2 or EGFR kinases, rendering the cells IL-3 independent
EXPERIMENTAL_PROTOCOL: Cell viability assay (CellTiter Glo)
Type: cell-based, mouse
CONDITION_SUMMARY: 72 hours; 300 cells per well, 384-well plates (Table B5); read-out: Cell Line: Ba/F3 ERBB2 A775 G776ins YVMA IC50
QUANTITY_KIND: log10 GI50 (log10 of the value in nM)
Field: value | Transform: log10 | Quantity: GI50 | Unit: nM

Lab book: log10 GI50 of CC#CC(=O)Nc1ccc2ncnc(Nc3ccc(Oc4ccc5c(c4)ncn5C)c(C)c3)c2c1 [Compound 212] noted as 0.97

The reported log10 GI50 of the molecule CC#CC(=O)Nc1cc2c(Nc3ccc(Oc4ccn5ncnc5c4)c(C)c3)ncnc2cn1 [Compound 199] was 0.40

Form: molecule = CC#CC(=O)Nc1cc2c(Nc3ccc(Oc4ccn5ncnc5c4)c(C)c3)ncnc2cc1OCCNC [Compound 194] ; log10 GI50 = 1.51

# log10 GI50 (molecule: CC#CC(=O)Nc1cc2c(Nc3ccc(Oc4ccn5ncnc5c4)c(Cl)c3)ncnc2cc1OCCN(C)C [Compound 200] ) is 0.42

The molecule listed as Cc1cc(Nc2ncnc3cc(OCCN(C)C)c(NC(=O)C#CC4(C)CC4)cc23)ccc1Oc1ccn2ncnc2c1 [Compound 190] shows log10 GI50 equal to 1.54

# molecule CC#CC(=O)Nc1cc2c(Nc3ccc(Oc4ccn5ncnc5c4)c(C)c3)ncnc2cc1OCCN1CCCC1 [Compound 192] ; its log10 GI50 = 1.04

Value of log10 GI50 reported for the molecule CC#CC(=O)Nc1ccc2ncnc(Nc3ccc(Oc4ccc5c(c4)ncn5C)c(C)c3)c2c1F [Compound 213] is 0.98

Reported log10 GI50 of CC#CC(=O)Nc1cc2c(Nc3ccc(Oc4ccn5ncnc5c4)c(F)c3)ncnc2cc1OCCN(C)C [Compound 198] : 1.06

GET /value?item= CC#CC(=O)Nc1cc2c(Nc3ccc(Cc4ccn5ncnc5c4)c(C)c3)ncnc2cc1OCCN(C)C [Compound 196] &field=log10 GI50 returns 1.00

log10 GI50 reported for this molecule CC#CC(=O)Nc1cc2c(Nc3ccc(Cc4ccn5ncnc5c4)c(F)c3)ncnc2cc1OCCN(C)C [Compound 202] : 1.69

log10 GI50 reported for this molecule CNCCOc1cc2ncnc(Nc3ccc(Oc4ccn5ncnc5c4)c(C)c3)c2cc1NC(=O)C#CC1CC1 [Compound 187] : 1.29

Entry CC#CC(=O)Nc1ccc2ncnc(Nc3cc(C)c(Oc4ccn5ncnc5c4)cc3F)c2c1F [Compound 210] ; log10 GI50 = 1.03

Per the record, CC#CC(=O)Nc1cc2c(Nc3ccc(Oc4ccn5ncnc5c4)c(C)c3)ncnc2cc1OCCN1CCN(C)CC1 [Compound 203] has log10 GI50 of 0.71

* * *

TARGET_DESC: ERBB2 (D769Y) (Homo sapiens, UniProt P04626, D769Y)
EXPERIMENTAL_PROTOCOL: Reaction Biology kinase activity assay (33P-ATP, HotSpot)
Type: biochemical
CONDITION_SUMMARY: final enzyme concentration 15 nM; 100 μM 33P-ATP; 20 min preincubation, 2 hours at 25° C.
Exercise: state measured IC50 for each of the compounds provided.
Quick note: give the figure in nM, leave out the unit.

Consider Cc1cc(Nc2ncnc3ccc(NC4=NC(C)(C)CO4)cc23)ccc1Oc1ccn2ncnc2c1 [Tucatinib, tucatinib, reference compound] . Its measured IC50 is 13.7

Recorded result, CC#CC(=O)Nc1ccc2ncnc(Nc3ccc(Oc4ccn5ncnc5c4)c(C)c3)c2c1 , IC50: 1.56

* * *

TARGET_DESC: ERBB2 (P1170A) (Homo sapiens, UniProt P04626, P1170A)
Sequence (P04626 23-1255 P1170A): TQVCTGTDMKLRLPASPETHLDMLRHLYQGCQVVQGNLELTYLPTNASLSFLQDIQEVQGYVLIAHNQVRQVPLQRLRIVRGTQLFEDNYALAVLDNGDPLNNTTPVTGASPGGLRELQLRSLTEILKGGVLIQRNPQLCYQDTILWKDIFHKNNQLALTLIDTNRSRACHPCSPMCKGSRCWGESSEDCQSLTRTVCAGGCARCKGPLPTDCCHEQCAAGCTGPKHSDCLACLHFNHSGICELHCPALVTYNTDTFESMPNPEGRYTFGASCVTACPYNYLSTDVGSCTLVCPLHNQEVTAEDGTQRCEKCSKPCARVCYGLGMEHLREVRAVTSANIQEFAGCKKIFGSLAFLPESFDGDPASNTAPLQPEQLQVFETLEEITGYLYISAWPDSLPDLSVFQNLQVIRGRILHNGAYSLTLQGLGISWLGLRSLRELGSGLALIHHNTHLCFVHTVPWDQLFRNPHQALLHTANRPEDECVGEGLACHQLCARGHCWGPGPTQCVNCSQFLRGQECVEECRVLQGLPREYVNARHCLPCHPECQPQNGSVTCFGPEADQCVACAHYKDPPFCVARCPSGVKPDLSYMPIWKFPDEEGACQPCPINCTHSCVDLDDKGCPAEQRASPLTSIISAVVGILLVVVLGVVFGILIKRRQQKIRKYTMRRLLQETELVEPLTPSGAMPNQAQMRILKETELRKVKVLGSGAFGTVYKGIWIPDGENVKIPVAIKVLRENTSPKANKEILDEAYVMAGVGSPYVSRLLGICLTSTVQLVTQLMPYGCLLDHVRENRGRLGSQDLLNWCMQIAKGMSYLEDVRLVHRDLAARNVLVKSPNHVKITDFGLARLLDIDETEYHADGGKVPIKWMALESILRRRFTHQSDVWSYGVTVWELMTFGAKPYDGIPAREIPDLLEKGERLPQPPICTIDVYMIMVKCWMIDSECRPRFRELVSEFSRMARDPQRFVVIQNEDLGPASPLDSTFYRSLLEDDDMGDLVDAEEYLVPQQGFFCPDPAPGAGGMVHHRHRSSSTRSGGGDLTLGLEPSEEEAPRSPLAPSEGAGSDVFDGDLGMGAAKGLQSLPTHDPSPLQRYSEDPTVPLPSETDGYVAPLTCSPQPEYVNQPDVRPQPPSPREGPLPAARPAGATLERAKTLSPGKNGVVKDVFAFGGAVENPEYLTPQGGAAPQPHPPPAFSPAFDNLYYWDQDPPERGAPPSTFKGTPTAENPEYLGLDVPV
EXPERIMENTAL_PROTOCOL: Reaction Biology kinase activity assay (33P-ATP, HotSpot)
Assay type: biochemical
CONDITION_SUMMARY: final enzyme concentration 20 nM; 100 μM 33P-ATP; 20 min preincubation, 2 hours at 25° C.
Field: IC50. Provide a value for each of the compounds that follow.
Note: unit nM is implicit; provide only the numeric part.

Lab note: Cc1cc(Nc2ncnc3ccc(NC4=NC(C)(C)CO4)cc23)ccc1Oc1ccn2ncnc2c1 [Tucatinib, tucatinib, reference compound] gave IC50 of 3.99

Sure, the documented IC50 for CC#CC(=O)Nc1ccc2ncnc(Nc3ccc(Oc4ccn5ncnc5c4)c(C)c3)c2c1 is 0.68

* * *

Would you kindly list IC50 for each of these molecules?
TARGET_DESC: phosphorylated EGFR (pEGFR) (Homo sapiens, UniProt P00533)
Construct: endogenous in cells
Sequence (P00533 25-1210): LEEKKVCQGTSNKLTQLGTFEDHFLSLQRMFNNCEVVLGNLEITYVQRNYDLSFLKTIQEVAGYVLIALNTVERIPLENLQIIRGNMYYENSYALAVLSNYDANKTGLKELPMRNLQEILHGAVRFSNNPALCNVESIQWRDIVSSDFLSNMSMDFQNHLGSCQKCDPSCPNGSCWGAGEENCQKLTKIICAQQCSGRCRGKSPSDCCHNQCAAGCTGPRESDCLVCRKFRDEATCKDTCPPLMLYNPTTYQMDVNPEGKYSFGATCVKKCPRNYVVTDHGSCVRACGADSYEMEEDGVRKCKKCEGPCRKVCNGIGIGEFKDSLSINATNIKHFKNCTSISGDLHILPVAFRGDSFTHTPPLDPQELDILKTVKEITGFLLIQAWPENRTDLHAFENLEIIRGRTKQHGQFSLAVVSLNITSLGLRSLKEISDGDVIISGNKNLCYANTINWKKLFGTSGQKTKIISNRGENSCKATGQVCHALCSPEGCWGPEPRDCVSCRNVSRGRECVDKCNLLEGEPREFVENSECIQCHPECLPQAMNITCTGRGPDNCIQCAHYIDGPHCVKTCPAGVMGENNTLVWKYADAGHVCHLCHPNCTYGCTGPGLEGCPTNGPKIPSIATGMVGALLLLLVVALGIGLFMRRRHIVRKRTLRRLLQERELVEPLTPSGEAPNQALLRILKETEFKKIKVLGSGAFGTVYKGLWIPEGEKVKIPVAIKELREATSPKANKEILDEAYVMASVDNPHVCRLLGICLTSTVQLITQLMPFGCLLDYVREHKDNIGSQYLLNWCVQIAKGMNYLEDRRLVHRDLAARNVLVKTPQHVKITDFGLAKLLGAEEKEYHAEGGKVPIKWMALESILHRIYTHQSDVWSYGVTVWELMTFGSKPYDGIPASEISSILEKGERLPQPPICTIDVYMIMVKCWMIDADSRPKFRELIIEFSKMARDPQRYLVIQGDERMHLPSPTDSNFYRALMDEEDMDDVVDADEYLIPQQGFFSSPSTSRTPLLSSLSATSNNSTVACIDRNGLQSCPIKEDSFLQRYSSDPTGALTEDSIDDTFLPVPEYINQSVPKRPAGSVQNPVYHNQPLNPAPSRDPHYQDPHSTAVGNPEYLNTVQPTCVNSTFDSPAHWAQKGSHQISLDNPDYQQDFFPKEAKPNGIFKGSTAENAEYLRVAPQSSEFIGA
EXPERIMENTAL_PROTOCOL: Detection of phosphorylated EGFR (pEGFR) in EGF-stimulated A431 cells (AlphaLISA)
CONDITION_SUMMARY: A431 cells (10% FBS), 4 hours with compound, then EGF 30 ng/mL for 10 minutes
Numeric only. Scale: nM

Given item CC#CC(=O)Nc1cc2c(Nc3ccc(Oc4ccn5ncnc5c4)c(C)c3)ncnc2cc1OCCN1CCCC1 [Compound 192] , the value recorded as its IC50 is 1350

Lab note: measured IC50 of CC#CC(=O)Nc1cc2c(Nc3ccc(Oc4ccn5ncnc5c4)c(Cl)c3F)ncnc2cc1OCCN(C)C [Compound 193] was 658

Value of IC50 reported for the molecule CC#CC(=O)Nc1cc2c(Nc3cc(C)c(Oc4ccn5ncnc5c4)cc3F)ncnc2cc1OCCN(C)C [Compound 182] is 1490

What the record says about CC#CC(=O)Nc1cc2c(Nc3ccc(Oc4ccn5ncnc5c4)c(C)c3)ncnc2cc1OCCNC [Compound 194] : IC50 is 804
